Origin of the recorded values: patent US20250243171A1

Catalogue of pEC50 readings, one per entry.
Biological target: Ba/F3 stable cells (Homo sapiens, UniProt P00533, T790M/L858R, cells depend on it)
Construct: EC50 Ba/F3-EGFR L858R-T790M; other: Ba/F3-EGFR L858R-T790M cells, 72 h, CCK-8
Sequence (P00533 whole entry T790M/L858R): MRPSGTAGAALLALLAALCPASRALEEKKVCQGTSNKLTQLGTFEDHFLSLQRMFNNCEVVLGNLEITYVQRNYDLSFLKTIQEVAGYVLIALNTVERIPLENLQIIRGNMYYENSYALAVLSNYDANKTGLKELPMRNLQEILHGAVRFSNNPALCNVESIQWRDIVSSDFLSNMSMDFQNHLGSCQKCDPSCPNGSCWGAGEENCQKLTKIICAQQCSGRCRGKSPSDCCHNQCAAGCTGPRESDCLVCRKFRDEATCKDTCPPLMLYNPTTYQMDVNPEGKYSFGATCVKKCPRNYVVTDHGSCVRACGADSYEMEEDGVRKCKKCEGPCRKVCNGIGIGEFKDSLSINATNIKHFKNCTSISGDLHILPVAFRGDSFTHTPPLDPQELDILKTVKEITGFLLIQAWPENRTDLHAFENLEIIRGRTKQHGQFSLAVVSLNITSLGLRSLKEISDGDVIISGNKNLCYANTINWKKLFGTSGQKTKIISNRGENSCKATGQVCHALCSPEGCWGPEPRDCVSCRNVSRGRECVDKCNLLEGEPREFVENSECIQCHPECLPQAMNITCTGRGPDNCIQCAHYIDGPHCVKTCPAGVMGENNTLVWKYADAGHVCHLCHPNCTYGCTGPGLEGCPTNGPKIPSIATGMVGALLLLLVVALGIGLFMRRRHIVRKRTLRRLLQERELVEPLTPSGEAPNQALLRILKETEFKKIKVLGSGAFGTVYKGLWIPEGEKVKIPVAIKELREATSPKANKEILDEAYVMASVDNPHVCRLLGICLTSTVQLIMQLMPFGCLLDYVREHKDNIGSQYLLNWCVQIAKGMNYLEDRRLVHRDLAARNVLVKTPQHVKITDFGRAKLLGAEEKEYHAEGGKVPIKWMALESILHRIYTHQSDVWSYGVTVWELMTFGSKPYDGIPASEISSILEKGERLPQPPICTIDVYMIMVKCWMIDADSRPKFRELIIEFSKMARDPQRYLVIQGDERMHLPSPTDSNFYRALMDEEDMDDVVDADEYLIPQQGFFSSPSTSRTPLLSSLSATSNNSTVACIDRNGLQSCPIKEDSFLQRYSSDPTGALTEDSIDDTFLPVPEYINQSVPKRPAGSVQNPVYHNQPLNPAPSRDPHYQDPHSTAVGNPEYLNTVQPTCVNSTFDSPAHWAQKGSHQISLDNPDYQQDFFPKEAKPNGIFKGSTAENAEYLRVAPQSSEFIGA
Assay: EC50 assay: Ba/F3 stable cell proliferation (CCK-8, 72 h)
Conditions: Ba/F3-EGFR L858R-T790M cells
Experimental: 4,000 Ba/F3 stable cells/90 μL/well were plated onto 96-well cell culture plate (Grenier, Cat.No. 655180) and incubated at 37° C. with a humidified atmosphere of 5% CO2 for 2 h. Then the cells were treated with 10 μL compounds at serial titration. […] 10 μL the cell proliferation reagent CCK-8 (Dojindo, Cat.No. CK04 1000T) was added into each well and incubated the plate at 37° C. for 4 hours, the GD value was measured by SPECTRAmax plus (Molecular Devices) at 450 nm. […]
pEC50: −log10 of the molar value.

1. C=CS(=O)(=O)N1CCC(Oc2cc3c(Nc4ccc(Cl)c(Cl)c4F)ncnc3cc2OC)CC1 = ≥ 6.70
2. C=CC(=O)N1CC(c2cc3c(Nc4ccc(Cl)c(Cl)c4F)ncnc3cc2OCCO)C1 = ≥ 6.70
3. [2H]C([2H])([2H])Oc1cc2ncnc(Nc3ccc(Cl)c(Cl)c3F)c2cc1O[C@H]1C[C@@H](NC(=O)C=C)C1 = ≥ 6.70
4. C=CC(=O)NC1CC(Oc2cc3c(Nc4ccc(Cl)c(F)c4Cl)ncnc3cc2OC)C1 (centres unmarked) = 6.00 to 6.70
5. COc1cc2ncnc(Nc3ccc(Cl)c(Cl)c3F)c2cc1OC1CCCN(C#N)C1 (centres unmarked) = < 6.00

Inquiry: May I ask what pEC50 has been recorded for "C=C(F)C(=O)N1CCC(Oc2cc3c(Nc4ccc(Cl)c(Cl)c4F)ncnc3cc2OC)CC1" ?
Reply text: < 6.00

Inquiry: May I ask what pEC50 has been recorded for C=CC(=O)N1CCCC(Oc2cc3c(Nc4ccc(Cl)c(Cl)c4F)ncnc3cc2OC)C1 (centres unmarked) ?
Reply text: < 6.00

Inquiry: May I ask what pEC50 has been recorded for "C=CC(=O)N1CCC(Oc2cc3c(Nc4ccnc5ccccc45)ncnc3cc2OC)CC1" ?
Reply text: ≥ 6.70
